target: human TrkA receptor (Homo sapiens (Human)); test: TrkA functional activity, DiscoverX PathHunter assay (NGF-stimulated U2OS cells); details: U2OS cells expressing human TrkA-Prolink, Shc1-EA and p75NTR; compound 1 h, then NGF (~80% of maximal response) 3 h; luminescence
Sequence (P04629 33-796): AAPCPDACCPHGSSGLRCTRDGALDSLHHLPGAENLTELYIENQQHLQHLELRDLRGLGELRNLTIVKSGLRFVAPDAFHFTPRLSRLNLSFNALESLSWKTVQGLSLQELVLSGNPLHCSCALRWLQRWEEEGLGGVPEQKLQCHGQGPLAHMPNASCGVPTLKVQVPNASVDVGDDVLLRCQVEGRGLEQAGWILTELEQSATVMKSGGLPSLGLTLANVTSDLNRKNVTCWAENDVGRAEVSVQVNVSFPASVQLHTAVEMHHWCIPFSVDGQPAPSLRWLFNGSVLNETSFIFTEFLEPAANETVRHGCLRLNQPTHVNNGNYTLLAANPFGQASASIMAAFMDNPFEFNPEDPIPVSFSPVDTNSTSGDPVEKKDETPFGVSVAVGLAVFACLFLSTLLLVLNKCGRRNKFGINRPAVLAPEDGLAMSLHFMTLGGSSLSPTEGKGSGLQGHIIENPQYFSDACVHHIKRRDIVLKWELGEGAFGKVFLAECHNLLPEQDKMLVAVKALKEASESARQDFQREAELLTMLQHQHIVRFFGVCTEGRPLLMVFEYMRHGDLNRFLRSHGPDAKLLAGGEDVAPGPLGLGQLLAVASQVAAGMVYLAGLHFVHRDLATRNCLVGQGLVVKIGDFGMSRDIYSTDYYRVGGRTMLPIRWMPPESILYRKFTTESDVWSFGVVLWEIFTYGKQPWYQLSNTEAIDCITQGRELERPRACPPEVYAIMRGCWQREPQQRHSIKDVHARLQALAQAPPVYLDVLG
outcome_measure: IC50 (nM)

> print(dat)
                                   compound  reading
1  CC(O)c1n[nH]c2c(NC(=O)c3ccc(C(F)(F)F)c(-c4ccn(C)n4)c3)c(-c3ccccc3)ccc12 (single isomer, unassigned) [Compound 48]      0.9

(I) Cn1ccc(-c2cc(C(=O)Nc3c(-c4ccccc4)ncn4c(CO)cnc34)c(F)cc2C(F)(F)F)n1
(II) O=C(Nc1c(-c2ccccc2)ncn2c(CO)cnc12)c1cc(-c2ncccn2)c(C(F)(F)F)cc1F
Asked: Compare IC50: is it lower for I or for II ? Record your answer as the label of the chosen record.
Given back: I
(I: 1.2 nM, II: 6.5 nM)
